type: in vivo, male SD-JCL rats; details: rat, percutaneous, clonidine
recordedEndpoint: effectiveness as percutaneous absorption promoter for clonidine

1. CCCCCCCCCCCCO :: ineffective
2. CCCCCCCCCCCCN :: ineffective
3. CCCCCCCC/C=C\CCCCCCCC(N)=O [oleinamide] :: ineffective
